Tested on: K562 cells
Assay: Resazurin-based viability assay, K562
Type: cell-based
Settings: Homo sapiens, 72 h, at least duplicate experiments
Catalogue of GI50 readings, one per entry.
API: value field is a number in nM; no unit string.

// below: answered compounds
INSERT INTO results (compound, measured_attribute, readout_units, quantitative_result) VALUES
  ('Cn1c(=O)n(C2CCC2)c2nc(Nc3ccc(N4CCNCC4)cc3)ncc21 [14c]', 'GI50', 'nM', 1040),
  ('O=c1[nH]c2cnc(Nc3ccc(N4CCNCC4)cc3)nc2n1C1CCCCC1 [13b]', 'GI50', 'nM', 1780),
  ('Cn1c(=O)n(C2CCCCCC2)c2nc(Nc3ccc(N4CCNCC4)cc3)ncc21 [14h]', 'GI50', 'nM', 1480),
  ('Cc1ccccc1-n1c(=O)n(C)c2cnc(Nc3ccc(N4CCNCC4)cc3)nc21 [14n]', 'GI50', 'nM', 16700),
  ('COc1ccc(Cn2c(=O)n(C)c3cnc(Nc4ccc(N5CCNCC5)cc4)nc32)c(OC)c1 [14r]', 'GI50', 'nM', 11900),
  ('CC(C)n1c(=O)n(C2CCCC2)c2nc(Nc3ccc(N4CCNCC4)cc3)ncc21 [15a]', 'GI50', 'nM', 580);

Ask | Need GI50, item COc1ccc(-n2c(=O)n(C)c3cnc(Nc4ccc(N5CCNCC5)cc4)nc32)cc1 [14q]
Reply | 1970

Ask | // query: CC1CCC(n2c(=O)n(C(C)C)c3cnc(Nc4ccc(N5CCNCC5)cc4)nc32)CC1 (stereo not drawn) [15c]
Reply | 1450

Ask | // query: CC(C)n1c(=O)n(C2CCCCCC2)c2nc(Nc3ccc(N4CCNCC4)cc3)ncc21 [15d]
Reply | 1180

----------
Catalogue of melting point readings, one per entry.

INSERT INTO measurements (compound, result) VALUES
  ('Cn1c(=O)n([C@H]2CC[C@H](C)CC2)c2nc(Nc3ccc(N4CCNCC4)cc3)ncc21 [14g]', '114 to 116 °C'),
  ('COc1ccc(-n2c(=O)n(C)c3cnc(Nc4ccc(N5CCNCC5)cc4)nc32)cc1 [14q]', '270 to 272 °C'),
  ('Cn1c(=O)n(C=Cc2ccc(F)cc2)c2nc(Nc3ccc(N4CCNCC4)cc3)ncc21 [14t]', '248 to 250 °C'),
  ('FC(F)(F)c1nc2cnc(Nc3ccc(N4CCNCC4)cc3)nc2n1C1CCCCC1 [12b]', '218 to 220 °C');

Ask | Need melting point, item FC(F)(F)c1nc2cnc(Nc3ccc(N4CCNCC4)cc3)nc2n1C1CCCC1 [12a]
Reply | 232 to 234 °C

----------
Dear all, this message contains GI50 results, target or system K562 cells.
Write the quantity with the unit trailing the number.

// below: answered compounds
INSERT INTO assay_data (compound, measured_attribute, result) VALUES
  ('Cn1c(=O)n(-c2ccccc2)c2nc(Nc3ccc(N4CCNCC4)cc3)ncc21 [14m]', 'GI50', '3030 nM'),
  ('Cn1c(=O)n([C@H]2CC[C@H](O)CC2)c2nc(Nc3ccc(N4CCNCC4)cc3)ncc21 [14f]', 'GI50', '9370 nM'),
  ('Cn1c(=O)n(C2CCCCCCC2)c2nc(Nc3ccc(N4CCNCC4)cc3)ncc21 [14i]', 'GI50', '2460 nM'),
  ('O=c1[nH]c2cnc(Nc3ccc(N4CCNCC4)cc3)nc2n1C1CCCC1 [13a]', 'GI50', '1630 nM'),
  ('Cn1c(=O)n(-c2cccc3ccccc23)c2nc(Nc3ccc(N4CCNCC4)cc3)ncc21 [14s]', 'GI50', '2530 nM'),
  ('CC(C)n1c(=O)n(C2CCCCC2)c2nc(Nc3ccc(N4CCNCC4)cc3)ncc21 [15b]', 'GI50', '1510 nM'),
  ('FC(F)(F)c1nc2cnc(Nc3ccc(N4CCNCC4)cc3)nc2n1C1CCCC1 [12a]', 'GI50', '1110 nM'),
  ('Cn1c(=O)n(C=Cc2ccc(F)cc2)c2nc(Nc3ccc(N4CCNCC4)cc3)ncc21 [14t]', 'GI50', '2290 nM');

Ask | Lab note: need GI50 for CC1CCC(n2c(C(F)(F)F)nc3cnc(Nc4ccc(N5CCNCC5)cc4)nc32)CC1 (stereo not drawn) [12c] on K562 cells, anyone have it?
Reply | 8210 nM

----------
Biological target: FLT3-ITD (Homo sapiens, UniProt P36888, ITD)
Sequence (P36888 27-993, change not shown): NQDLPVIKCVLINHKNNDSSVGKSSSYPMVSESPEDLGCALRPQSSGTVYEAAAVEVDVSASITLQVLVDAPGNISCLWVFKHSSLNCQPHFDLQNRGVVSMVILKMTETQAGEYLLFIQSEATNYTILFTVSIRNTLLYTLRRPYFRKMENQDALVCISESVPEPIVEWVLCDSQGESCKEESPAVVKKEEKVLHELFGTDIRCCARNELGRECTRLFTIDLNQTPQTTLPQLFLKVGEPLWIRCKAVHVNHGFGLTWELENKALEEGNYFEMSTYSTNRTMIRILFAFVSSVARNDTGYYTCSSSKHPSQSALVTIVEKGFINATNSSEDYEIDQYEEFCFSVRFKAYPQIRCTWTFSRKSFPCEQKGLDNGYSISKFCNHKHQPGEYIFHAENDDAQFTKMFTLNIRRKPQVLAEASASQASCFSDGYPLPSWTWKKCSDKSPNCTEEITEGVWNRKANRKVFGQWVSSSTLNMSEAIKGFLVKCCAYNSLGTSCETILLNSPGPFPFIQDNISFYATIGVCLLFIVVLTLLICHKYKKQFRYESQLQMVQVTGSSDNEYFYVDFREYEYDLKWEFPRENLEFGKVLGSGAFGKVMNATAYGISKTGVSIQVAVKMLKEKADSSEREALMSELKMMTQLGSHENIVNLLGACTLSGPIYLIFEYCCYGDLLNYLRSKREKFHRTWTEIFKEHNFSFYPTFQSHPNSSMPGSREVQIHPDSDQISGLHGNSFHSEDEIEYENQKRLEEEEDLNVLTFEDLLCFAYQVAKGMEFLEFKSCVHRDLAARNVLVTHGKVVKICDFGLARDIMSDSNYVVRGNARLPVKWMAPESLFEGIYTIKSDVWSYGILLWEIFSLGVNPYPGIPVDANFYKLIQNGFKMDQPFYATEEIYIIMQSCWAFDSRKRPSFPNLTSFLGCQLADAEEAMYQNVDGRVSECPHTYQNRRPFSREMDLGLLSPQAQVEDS
Assay: Kinase inhibition assay FLT3-ITD
Type: biochemical
Settings: at least duplicate experiments; read-out: IC50 FLT3-ITD
Protocol: Newly prepared compounds 12–15 were assayed for inhibition of FLT3-ITD kinase as well as CDK4 and CDK2, known off-targets of structurally related compounds. We observed that CDK4 was sensitive to nearly all compounds with IC50 values in mid-nanomolar values. CDK/cyclin complexes and FLT3 kinases were assayed as previously described. Protein kinase selectivity was evaluated at a single concentration (1 µM) by screening against 30 enzymes at Eurofins Discovery (France).
measured attribute: IC50 (nM)
API: value field is a number in nM; no unit string.

INSERT INTO measurements (compound, tested_system, quantitative_result) VALUES
  ('Cn1c(=O)n(C=Cc2ccc(F)cc2)c2nc(Nc3ccc(N4CCNCC4)cc3)ncc21 [14t]', 'FLT3-ITD (Homo sapiens, UniProt P36888, ITD)', 345),
  ('FC(F)(F)c1nc2cnc(Nc3ccc(N4CCNCC4)cc3)nc2n1C1CCCCCC1 [12d]', 'FLT3-ITD (Homo sapiens, UniProt P36888, ITD)', 88),
  ('Cn1c(=O)n([C@H]2CC[C@H](O)CC2)c2nc(Nc3ccc(N4CCNCC4)cc3)ncc21 [14f]', 'FLT3-ITD (Homo sapiens, UniProt P36888, ITD)', 132);

// moving on: another record for IC50
Ask | Need IC50, item Cn1c(=O)[nH]c2nc(Nc3ccc(N4CCNCC4)cc3)ncc21 [14a]
Reply | 6900

----------
Dear all, this message contains GI50 results, target or system K562 cells.
API: value field is a number in nM; no unit string.

// below: answered molecules
INSERT INTO assay_data (molecule, tested_system, measured_attribute, quantitative_result) VALUES
  ('Cc1ccc(-n2c(=O)n(C)c3cnc(Nc4ccc(N5CCNCC5)cc4)nc32)cc1 [14o]', 'K562 cells', 'GI50', 7620),
  ('COc1ccccc1-n1c(=O)n(C)c2cnc(Nc3ccc(N4CCNCC4)cc3)nc21 [14p]', 'K562 cells', 'GI50', 370);

Ask | Need GI50, item Cn1c(=O)n(C2CCCC2)c2nc(Nc3ccc(N4CCNCC4)cc3)ncc21 [14d]
Reply | 960

Ask | // query: O=c1[nH]c2cnc(Nc3ccc(N4CCNCC4)cc3)nc2n1C1CCCCCC1 [13d]
Reply | 1580

Ask | // query: CC1CCC(n2c(=O)[nH]c3cnc(Nc4ccc(N5CCNCC5)cc4)nc32)CC1 (centres unmarked) [13c]
Reply | 1900

----------
Catalogue of melting point readings, one per entry.

INSERT INTO assay_data (compound, measured_attribute, result) VALUES
  ('Cn1c(=O)n([C@H]2CC[C@H](O)CC2)c2nc(Nc3ccc(N4CCNCC4)cc3)ncc21 [14f]', 'melting point', '272 to 274 °C'),
  ('Cc1ccccc1-n1c(=O)n(C)c2cnc(Nc3ccc(N4CCNCC4)cc3)nc21 [14n]', 'melting point', '152 to 154 °C'),
  ('Cn1c(=O)n(C2CC2)c2nc(Nc3ccc(N4CCNCC4)cc3)ncc21 [14b]', 'melting point', '156 to 158 °C'),
  ('COc1ccc(Cn2c(=O)n(C)c3cnc(Nc4ccc(N5CCNCC5)cc4)nc32)c(OC)c1 [14r]', 'melting point', '102 to 104 °C'),
  ('O=c1[nH]c2cnc(Nc3ccc(N4CCNCC4)cc3)nc2n1C1CCCC1 [13a]', 'melting point', '200 to 202 °C');

Ask | Need melting point, item CC1CCC(n2c(=O)n(C(C)C)c3cnc(Nc4ccc(N5CCNCC5)cc4)nc32)CC1 (stereo not drawn) [15c]
Reply | 264 to 266 °C

Ask | // query: CC(C)n1c(=O)n(C2CCCCC2)c2nc(Nc3ccc(N4CCNCC4)cc3)ncc21 [15b]
Reply | 132 to 134 °C

Ask | // query: Cn1c(=O)n(C2CCOCC2)c2nc(Nc3ccc(N4CCNCC4)cc3)ncc21 [14k]
Reply | 124 to 126 °C

Ask | // query: Cc1ccc(-n2c(=O)n(C)c3cnc(Nc4ccc(N5CCNCC5)cc4)nc32)cc1 [14o]
Reply | 126 to 128 °C
